Biological target: UniProt Q00975
Sequence (Q00975 whole entry): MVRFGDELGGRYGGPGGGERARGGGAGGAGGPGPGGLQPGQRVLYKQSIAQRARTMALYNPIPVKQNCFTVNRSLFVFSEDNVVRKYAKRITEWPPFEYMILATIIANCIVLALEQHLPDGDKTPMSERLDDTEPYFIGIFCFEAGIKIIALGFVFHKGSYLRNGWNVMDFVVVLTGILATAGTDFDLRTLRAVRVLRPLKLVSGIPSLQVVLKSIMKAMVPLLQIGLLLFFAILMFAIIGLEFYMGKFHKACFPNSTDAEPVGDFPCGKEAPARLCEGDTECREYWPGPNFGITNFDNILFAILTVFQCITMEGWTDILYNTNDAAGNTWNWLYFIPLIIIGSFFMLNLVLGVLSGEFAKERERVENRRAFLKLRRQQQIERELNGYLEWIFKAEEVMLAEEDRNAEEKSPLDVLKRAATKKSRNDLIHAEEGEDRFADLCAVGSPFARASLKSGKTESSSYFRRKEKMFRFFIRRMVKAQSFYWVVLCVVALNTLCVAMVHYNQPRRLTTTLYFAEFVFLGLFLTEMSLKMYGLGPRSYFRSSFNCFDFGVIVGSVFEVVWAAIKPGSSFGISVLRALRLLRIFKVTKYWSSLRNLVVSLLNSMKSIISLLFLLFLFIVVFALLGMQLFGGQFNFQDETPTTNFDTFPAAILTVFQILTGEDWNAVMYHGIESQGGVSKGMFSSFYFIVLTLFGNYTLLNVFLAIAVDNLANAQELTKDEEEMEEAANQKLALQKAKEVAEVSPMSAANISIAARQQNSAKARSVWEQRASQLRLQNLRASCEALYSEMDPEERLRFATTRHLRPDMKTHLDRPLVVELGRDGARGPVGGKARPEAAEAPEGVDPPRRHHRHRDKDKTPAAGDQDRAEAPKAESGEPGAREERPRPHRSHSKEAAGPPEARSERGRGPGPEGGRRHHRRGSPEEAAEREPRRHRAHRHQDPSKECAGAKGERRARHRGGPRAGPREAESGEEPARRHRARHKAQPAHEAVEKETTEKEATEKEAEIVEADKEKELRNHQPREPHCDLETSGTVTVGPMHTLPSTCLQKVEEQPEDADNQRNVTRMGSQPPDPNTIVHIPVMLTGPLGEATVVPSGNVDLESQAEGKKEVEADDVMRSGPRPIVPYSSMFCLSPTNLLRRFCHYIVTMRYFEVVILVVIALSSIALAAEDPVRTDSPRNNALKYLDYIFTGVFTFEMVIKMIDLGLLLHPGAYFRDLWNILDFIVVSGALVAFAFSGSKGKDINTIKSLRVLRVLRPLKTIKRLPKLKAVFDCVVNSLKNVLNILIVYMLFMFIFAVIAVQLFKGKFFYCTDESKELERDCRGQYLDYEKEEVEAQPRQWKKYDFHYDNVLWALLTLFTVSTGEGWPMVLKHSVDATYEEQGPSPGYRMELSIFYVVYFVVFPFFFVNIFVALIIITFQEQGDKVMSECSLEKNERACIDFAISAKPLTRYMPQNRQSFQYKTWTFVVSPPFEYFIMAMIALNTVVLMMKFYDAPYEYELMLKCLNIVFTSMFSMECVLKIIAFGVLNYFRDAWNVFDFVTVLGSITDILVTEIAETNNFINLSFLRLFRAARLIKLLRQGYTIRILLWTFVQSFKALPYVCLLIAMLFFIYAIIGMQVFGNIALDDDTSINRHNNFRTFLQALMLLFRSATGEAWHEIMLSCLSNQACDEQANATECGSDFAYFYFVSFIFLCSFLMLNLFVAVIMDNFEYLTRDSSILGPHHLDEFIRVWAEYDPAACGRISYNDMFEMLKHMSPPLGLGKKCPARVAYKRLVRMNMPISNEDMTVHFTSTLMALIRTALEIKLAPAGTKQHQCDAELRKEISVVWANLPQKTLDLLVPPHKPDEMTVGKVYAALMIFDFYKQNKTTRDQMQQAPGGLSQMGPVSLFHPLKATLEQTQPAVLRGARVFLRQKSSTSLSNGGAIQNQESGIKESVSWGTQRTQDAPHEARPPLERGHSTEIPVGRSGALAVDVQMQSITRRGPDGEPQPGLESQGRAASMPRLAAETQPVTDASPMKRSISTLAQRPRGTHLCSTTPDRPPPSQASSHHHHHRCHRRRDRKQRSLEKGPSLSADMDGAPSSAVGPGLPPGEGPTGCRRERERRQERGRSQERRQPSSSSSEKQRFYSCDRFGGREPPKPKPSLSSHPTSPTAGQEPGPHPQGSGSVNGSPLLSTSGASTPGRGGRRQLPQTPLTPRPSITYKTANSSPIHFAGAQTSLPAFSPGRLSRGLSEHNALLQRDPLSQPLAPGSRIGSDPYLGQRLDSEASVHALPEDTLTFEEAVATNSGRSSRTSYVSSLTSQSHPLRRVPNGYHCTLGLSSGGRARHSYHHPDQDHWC
Sequence (P54284 whole entry partner): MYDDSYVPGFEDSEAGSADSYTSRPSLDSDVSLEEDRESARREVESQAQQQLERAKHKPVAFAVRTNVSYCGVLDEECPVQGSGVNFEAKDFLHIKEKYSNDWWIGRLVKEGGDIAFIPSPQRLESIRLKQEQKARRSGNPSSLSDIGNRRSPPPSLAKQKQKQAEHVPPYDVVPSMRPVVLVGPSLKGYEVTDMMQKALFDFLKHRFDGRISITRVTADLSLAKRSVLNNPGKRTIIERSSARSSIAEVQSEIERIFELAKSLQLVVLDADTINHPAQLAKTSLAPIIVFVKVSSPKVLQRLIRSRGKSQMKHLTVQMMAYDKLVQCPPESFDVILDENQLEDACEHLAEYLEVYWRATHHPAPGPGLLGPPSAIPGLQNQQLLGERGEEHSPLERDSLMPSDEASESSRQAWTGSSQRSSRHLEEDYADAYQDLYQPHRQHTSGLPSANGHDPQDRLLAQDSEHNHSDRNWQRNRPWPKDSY
Sequence (P54289 25-956 partner limits assumed): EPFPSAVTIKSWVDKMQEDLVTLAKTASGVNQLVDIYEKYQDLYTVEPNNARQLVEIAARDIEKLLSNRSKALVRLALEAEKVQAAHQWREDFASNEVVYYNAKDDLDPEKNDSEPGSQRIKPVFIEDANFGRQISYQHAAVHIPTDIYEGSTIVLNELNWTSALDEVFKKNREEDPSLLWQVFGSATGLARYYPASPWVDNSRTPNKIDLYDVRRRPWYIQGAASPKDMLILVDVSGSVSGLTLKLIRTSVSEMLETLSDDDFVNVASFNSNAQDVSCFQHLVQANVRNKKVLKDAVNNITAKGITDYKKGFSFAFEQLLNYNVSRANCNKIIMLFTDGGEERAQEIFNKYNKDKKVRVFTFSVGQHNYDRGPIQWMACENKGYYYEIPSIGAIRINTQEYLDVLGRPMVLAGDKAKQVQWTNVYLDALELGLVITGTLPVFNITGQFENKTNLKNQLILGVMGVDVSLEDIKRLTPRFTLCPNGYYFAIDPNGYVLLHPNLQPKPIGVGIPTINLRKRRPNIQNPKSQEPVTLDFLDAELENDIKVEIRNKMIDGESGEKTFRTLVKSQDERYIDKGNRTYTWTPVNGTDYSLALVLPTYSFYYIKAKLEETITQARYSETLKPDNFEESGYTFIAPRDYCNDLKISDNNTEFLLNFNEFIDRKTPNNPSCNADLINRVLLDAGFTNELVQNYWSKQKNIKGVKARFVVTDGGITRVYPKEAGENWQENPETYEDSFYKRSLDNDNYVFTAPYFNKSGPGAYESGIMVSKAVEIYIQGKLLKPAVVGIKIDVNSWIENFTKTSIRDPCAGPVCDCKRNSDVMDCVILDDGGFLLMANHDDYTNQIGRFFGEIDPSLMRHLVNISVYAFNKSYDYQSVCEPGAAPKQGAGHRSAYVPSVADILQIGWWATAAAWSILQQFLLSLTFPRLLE
Sequence (P54289 957-1103 partner limits assumed): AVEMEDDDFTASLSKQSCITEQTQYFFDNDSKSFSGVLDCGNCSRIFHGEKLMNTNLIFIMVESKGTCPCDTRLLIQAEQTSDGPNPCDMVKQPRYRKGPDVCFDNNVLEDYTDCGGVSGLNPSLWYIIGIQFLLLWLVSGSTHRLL
Test: VIPR optical membrane potential assay with electrical stimulation, CaV2.2
Conditions: Table 9, CaV 2.2 receptors
Measured IC50 accompanies every entry in the list below.
Endpoint Label: IC50

[
  {
    "Compound": "CC(C)N(C(=O)c1cnc(N2CCCCC2)nc1-c1ccccc1F)c1ccc2c(c1)OCCO2",
    "Result": "2000 to 10000 nM"
  },
  {
    "Compound": "CCN(CCC#N)c1ncc(C(=O)N(Cc2ccccc2)C(C)C)c(-c2ccccc2F)n1",
    "Result": "< 2000 nM"
  },
  {
    "Compound": "CC(C)N(Cc1ccccc1)C(=O)c1cnc(N2CCOCC2)nc1-c1ccc(C#N)cc1",
    "Result": "2000 to 10000 nM"
  },
  {
    "Compound": "CC(C)N(Cc1ccccc1)C(=O)c1cnc(NC2CC3CCC2C3)nc1-c1ccccc1F (centres unmarked)",
    "Result": "< 2000 nM"
  },
  {
    "Compound": "CC(C)Oc1ccc(-c2nc(N3CCOCC3)ncc2C(=O)N(Cc2ccccc2)C(C)C)cc1",
    "Result": "> 10000 nM"
  },
  {
    "Compound": "CC(C)N(Cc1ccccc1)C(=O)c1cnc(N2CCOCC2)nc1-c1ccccc1F",
    "Result": "2000 to 10000 nM"
  },
  {
    "Compound": "CC(C)N(C(=O)c1cnc(N2CCOCC2)nc1-c1ccccc1F)c1ccc2c(c1)OCO2",
    "Result": "2000 to 10000 nM"
  },
  {
    "Compound": "Cc1nc(N2CCOCC2)nc(-c2ccccc2F)c1C(=O)N(Cc1ccc2c(c1)CCO2)C1CC1",
    "Result": "2000 to 10000 nM"
  }
]
